test system: CEM cells HIV-1 protection, formazan growth assay; assay: NCI AIDS Antiviral Assay; details: measured here: growth of uninfected CEM cells
pIC50: −log10 of the molar value.
OBSERVABLE: pIC50

COMPOUND	RECORDED VALUE
CC1OC(OC2C(OC(=O)[C@]34CCC(C)(C)CC3C3=CCC5[C@@]6(C)C[C@H](O)[C@H](OC7OC(COC8OC(CO)C(O)C(O)C8O)C(O)C(O)C7O)[C@@](C)(C(=O)O)C6CC[C@@]5(C)C3(C)CC4)OCC(O)C2O)C(O)C(O)C1OC1OCC(O)C(O)C1O (some centres undefined)	< 3.96
CC1(C)CCC[C@@]2(C)C1CC[C@H]1CC(O)C3(C)CCC12C3 (some centres undefined)	< 4.91
O=C1/C(=C2\Sc3c(ccc(Cl)c3Cl)C2=O)Sc2c1ccc(Cl)c2Cl	< 3.70
O=C1NN(Cc2ccccc2)C(=O)N2CCC[C@@H]12	< 3.70
CC(C)CCCC(C)[C@H]1CC[C@H]2[C@@H]3CC[C@H]4C[C@@H](CCC=C(c5cc(Cl)c(OC(=O)c6ccccc6)c(C(=O)O)c5)c5cc(Cl)c(OC(=O)c6ccccc6)c(C(=O)O)c5)CC[C@]4(C)[C@H]3CC[C@]12C (some centres undefined)	< 3.70
Cc1cc(C(F)(F)F)nc2nc3ccccc3n12	< 3.70

**Q:** Hi! What's the reported pIC50 for O=S(=O)(c1ccccc1)C1(CCC2OCCO2)C=CC2(CC1)OCCO2 (centres undefined) on CEM cells HIV-1 protection, formazan growth assay?
**A:** < 3.70

**Q:** And `O=C1NC(=O)C2(CCCCCC2)N1` ?
**A:** < 3.70

**Q:** And `NC(=O)c1ncn(CC2(COC(=O)c3ccccc3)CCC2)n1` ?
**A:** < 3.70
